The origin of these recorded values is PubChem BioAssay (NCI).

- System: PC-3 prostate
- method: NCI-60 one-dose screen, 48 h (100 = growth as untreated, 0 = no growth, -100 = all killed)
- assay-conditions: 10 µM unless noted
The panel holds about 83,000 compounds, 20% with a hit somewhere; the sample as a whole holds those more often. The source made the active and inactive calls. Rule for the calls: active = growth percent below 10; inactive = the rest.
assay-readout: growth

INSERT INTO measurements (compound, assay_readout, result) VALUES
  ('N#Cc1c(N)nc(Nc2nc3ccccc3[nH]2)nc1-c1ccc(Cl)cc1', 'growth', '94.8% (inactive)'),
  ('O=[N+]([O-])c1ccc(-c2ncc(-c3ccc(O)cc3O)[nH]2)cc1', 'growth', '98% (inactive)'),
  ('COc1cc(-c2nc(/C=C3/C(=O)Nc4ccccc43)c3ccccn23)cc(OC)c1OC', 'growth', '57.8% (inactive)'),
  ('CC#Cc1nc(Nc2cc(C)[nH]n2)c2ccccc2n1', 'growth', '-28.8% [100 µM] (active)'),
  ('COc1nc(OC)nc(-c2cc(-c3cc(OC)c(OC)c(OC)c3)no2)n1', 'growth', '86.3% (inactive)');

Field: growth. Fill in for each record below.
1. O=C(Nc1ccc(-n2cc(-c3ccncc3)c(-c3ccc(Cl)c(O)c3)n2)cc1)c1cc(C(F)(F)F)cc(C(F)(F)F)c1
2. Cc1cc(CSc2ccc(Cl)cc2)ccc1N
3. COc1cc(CNC(=O)CCCC/C=C/C(C)C)ccc1OCc1nnc(Nc2ccccc2F)o1
4. CC(=O)CCS(=O)c1ccccc1 (stereo unspecified)
5. CCCCCCCCCCCCCCCCCC1=NCCN1CCNC(C)=O
6. CC(O)CCC(C)[N+](=O)[O-] (stereo unspecified)
7. COc1ccc(OC)c(Cn2cc3c(c2)-c2oncc2CC3)c1
8. Cc1c(Cc2ccccc2)c(=O)oc2c(C)c(OCc3n[nH]c(=S)o3)ccc12

-- reply
72.1% (inactive)
76.5% (inactive)
72.5% (inactive)
94.6% (inactive)
80.3% (inactive)
102% (inactive)
45.5% (inactive)
11.2% (inactive)

Each of the following entries comes with a recorded value; kindly state growth for each.
1. CC(=O)NNC(=O)c1sc(NC(C)=O)nc1C
2. COc1ccc(C2=C/C(=C\c3ccc(Cl)cc3)C(=O)NN2C(=S)NN)cc1
3. C/C=C/C/C=C/[C@H](C)C[C@H](O)[C@@H]1C[C@@H]2O[C@H]2/C=C/[C@H](O)[C@@H](O)/C=C/C[C@H](C)CC(=O)O1
4. O=C(/C=C1\C(=O)N(Cc2ccc([N+](=O)[O-])cc2)c2ccccc21)c1ccc(OCCN2CCCCC2)cc1
5. COc1ccc(-c2cn3ccnc3c(-c3ccc4ncn(C5CCCCC5)c4c3)n2)cc1
6. N=C(N)c1ccc(-c2ccc(-c3cc(Cl)cc(Cl)c3)s2)cc1
7. CCCC(CCC)Oc1ccc(CCCC2=C(O)c3ccccc3C(=O)C2=O)cc1

-- reply
1: 90.8% (inactive); 2: 92.3% (inactive); 3: 115% (inactive); 4: -52.3% (active); 5: 4.78% (active); 6: -81.6% (active); 7: 27.7% (inactive)

GET /value?item= O=C1CSC(c2ccccc2Cl)N1c1nnc(-c2ccncc2)o1 (stereo unspecified) &field=growth returns 98.5% (inactive)
